test_system: human PAR4 (Homo sapiens, UniProt Q96RI0)
Sequence (Q96RI0 18-385): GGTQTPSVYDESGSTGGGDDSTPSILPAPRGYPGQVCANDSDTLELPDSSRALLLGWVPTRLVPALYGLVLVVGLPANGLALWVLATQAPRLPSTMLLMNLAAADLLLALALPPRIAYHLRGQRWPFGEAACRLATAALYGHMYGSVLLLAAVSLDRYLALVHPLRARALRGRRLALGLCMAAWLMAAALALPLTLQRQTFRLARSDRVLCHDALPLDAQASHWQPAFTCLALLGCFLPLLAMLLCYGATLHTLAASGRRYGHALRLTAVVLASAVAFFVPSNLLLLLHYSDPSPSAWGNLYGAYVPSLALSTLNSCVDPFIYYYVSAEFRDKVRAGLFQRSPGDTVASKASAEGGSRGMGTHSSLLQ
test: PAR4 FLIPR assay: antagonism of agonist-peptide-induced calcium mobilization in PAR4-expressing HEK293 cells
test_settings: H-Ala-Phe(4-F)-[…]NH2-induced intracellular calcium mobilization, 11-point curves
measured_parameter: IC50 (nM)

{"compound": "COc1cnc2c(-c3nc4c(Cl)c(F)c(OCCOC(=O)Nc5ccc(C#N)nc5)cc4s3)cc(C)cc2n1", "test_system": "human PAR4 (Homo sapiens, UniProt Q96RI0)", "test_result": 5.8}
{"compound": "Cc1cc(-c2nc3c(s2)CN(C(=O)OC(C)(C)C)CC3)c2ncc(OC(F)F)nc2c1", "test_system": "human PAR4 (Homo sapiens, UniProt Q96RI0)", "test_result": 1700}
{"compound": "COc1cnc2c(-c3nc4cc(F)c(O[C@@H](C)[C@@H](C)OC(=O)Nc5cnc(C(=O)NCCC(C)(C)O)nc5)cc4s3)cc(C)cc2n1", "test_system": "human PAR4 (Homo sapiens, UniProt Q96RI0)", "test_result": 0.5}
{"compound": "CNCCOc1ccc2oc(-c3cc(C)cc4nc(OC(F)F)cnc34)cc2c1", "test_system": "human PAR4 (Homo sapiens, UniProt Q96RI0)", "test_result": 94}
{"compound": "COc1cnc2c(-c3nc4cc(F)c(O[C@@H](C)[C@@H](C)OC(=O)Nc5cnc(O[C@H](C)CO)nc5)cc4s3)cc(C)cc2n1", "test_system": "human PAR4 (Homo sapiens, UniProt Q96RI0)", "test_result": 0.7}
{"compound": "COC(=O)NCCOc1cccc2nc(-c3cc(C)cc4nc(OC(F)F)cnc34)sc12", "test_system": "human PAR4 (Homo sapiens, UniProt Q96RI0)", "test_result": 36}
{"compound": "COCc1cnc2c(-c3nc4c(OC)cc(F)cc4s3)cc(C)cc2n1", "test_system": "human PAR4 (Homo sapiens, UniProt Q96RI0)", "test_result": 17}
{"compound": "COCc1cnc2c(-c3nc4c(Cl)cc(OC)cc4s3)cccc2n1", "test_system": "human PAR4 (Homo sapiens, UniProt Q96RI0)", "test_result": 2.4}
{"compound": "COc1cnc2c(-c3nc4cc(F)c(O[C@@H](C)[C@@H](C)OC(=O)Nc5cnc(OCCO)nc5)cc4s3)cc(C)cc2n1", "test_system": "human PAR4 (Homo sapiens, UniProt Q96RI0)", "test_result": 0.7}
{"compound": "COc1cnc2c(-c3nc4c(C)cc(OCC(=O)NCc5ccccc5)cc4s3)cc(C)cc2n1", "test_system": "human PAR4 (Homo sapiens, UniProt Q96RI0)", "test_result": 7.7}
{"compound": "COCC(COc1cc2sc(-c3cc(C)cc4nc(OC)cnc34)nc2cc1F)OC(=O)Nc1cccnc1 (racemic)", "test_system": "human PAR4 (Homo sapiens, UniProt Q96RI0)", "test_result": 2}
{"compound": "COc1cnc2c(-c3nc4cnccc4s3)cc(C)cc2n1", "test_system": "human PAR4 (Homo sapiens, UniProt Q96RI0)", "test_result": 54}
{"compound": "Cc1cc(-c2nc3cccc(OCCOCc4ccccc4)c3s2)c2ncc(OC(F)F)nc2c1", "test_system": "human PAR4 (Homo sapiens, UniProt Q96RI0)", "test_result": 98}
{"compound": "COC(=O)NCCOc1ccc2oc(-c3cc(C)cc4nc(OC(F)F)cnc34)cc2c1", "test_system": "human PAR4 (Homo sapiens, UniProt Q96RI0)", "test_result": 17}
{"compound": "COc1ccc2nc(-c3cc(CO)cc4nc(OC)cnc34)sc2c1", "test_system": "human PAR4 (Homo sapiens, UniProt Q96RI0)", "test_result": 8.3}
{"compound": "COc1cnc2c(-c3nc4ccc(OCCOC(=O)Nc5cccc(C#N)c5)cc4s3)cc(C)cc2n1", "test_system": "human PAR4 (Homo sapiens, UniProt Q96RI0)", "test_result": 2.2}

====

test_system: human PAR4 (Homo sapiens)
test: PAR4 FLIPR assay: antagonism of agonist-peptide-induced calcium mobilization in PAR4-expressing HEK293 cells
test_settings: H-Ala-Phe(4-F)-[…]NH2-induced intracellular calcium mobilization, 11-point curves
pIC50: −log10 of the molar value.

{"smiles_representation": "Cc1cc(-c2cc3cc(OCC(=O)OC(C)(C)C)ccc3o2)c2ncc(OC(F)F)nc2c1", "pIC50": 8.01}
{"smiles_representation": "COc1cnc2c(-c3nc4cc(F)c(O[C@@H](C)[C@@H](C)OC(=O)Nc5cnc(O[C@@H](C)CO)nc5)cc4s3)cc(C)cc2n1", "pIC50": 8.85}
{"smiles_representation": "COCc1cnc2c(-c3nc4c(C)cc(OC(F)F)cc4s3)cc(C)cc2n1", "pIC50": 9.10}
{"smiles_representation": "COc1cnc2c(-c3nc4cc(F)c(O[C@@H](C)[C@@H](C)OC(=O)Nc5cnc(CO)nc5)cc4s3)cc(Cl)cc2c1", "pIC50": 8.19}
{"smiles_representation": "COc1cnc2c(-c3nc4cc(F)c(O[C@@H](C)[C@@H](C)OC(=O)Nc5ccc(CCO)nc5)cc4s3)cc(C)cc2n1", "pIC50": 8.82}
{"smiles_representation": "COC(=O)COc1cc2sc(-c3cc(C)cc4nc(OC)cnc34)nc2c(C)c1F", "pIC50": 7.80}
{"smiles_representation": "COc1cnc2c(-c3nc4cc(F)c(O[C@@H](C)[C@@H](C)OC(=O)Nc5cnc(C)nc5)cc4s3)cc(CF)cc2c1", "pIC50": 9.00}
{"smiles_representation": "COc1cnc2c(-c3nc4cc(F)c(O[C@@H](C)[C@@H](C)OC(=O)Nc5ccnc(C(=O)NCC(C)(C)O)c5)cc4s3)cc(C)cc2n1", "pIC50": 8.85}
{"smiles_representation": "COc1cnc2c(-c3nc4cc(F)c(OC[C@@H](C)OC(=O)Nc5ccc(C(=O)N6CCC[C@H](O)C6)nc5)cc4s3)cc(C)cc2n1", "pIC50": 9.00}
{"smiles_representation": "COc1cnc2c(-c3nc4cc(F)c(OC[C@@H](C)OC(=O)Nc5ccc(C)nc5)cc4s3)cc(C)cc2n1", "pIC50": 9.15}
{"smiles_representation": "COc1cnc2c(-c3nc4cc(F)c(O[C@@H](C)[C@@H](C)OC(=O)Nc5cnc(C)nc5)cc4s3)cc(C)cc2n1", "pIC50": 8.11}
{"smiles_representation": "COc1cnc2c(-c3nc4cc(F)c(O[C@@H](C)[C@@H](C)OC(=O)Nc5cnc(OC)nc5)cc4s3)cc(Cl)cc2n1", "pIC50": 8.77}
{"smiles_representation": "COc1cnc2c(-c3nc4cc(F)c(O[C@@H](C)[C@@H](C)OC(=O)Nc5cnc(OCCC(C)(C)O)nc5)cc4s3)cc(C)cc2n1", "pIC50": 8.18}
{"smiles_representation": "COCc1cnc2c(-c3nc4c(C)cc(OC)nc4s3)cc(C)cc2n1", "pIC50": 8.92}

====

test_system: UniProt Q96RI0
test: PAR4 FLIPR assay: antagonism of agonist-peptide-induced calcium mobilization in PAR4-expressing HEK293 cells
test_settings: H-Ala-Phe(4-F)-[…]NH2-induced intracellular calcium mobilization, 11-point curves
Threshold check on IC50: strictly below 6 nM is label 1; on or above 6 nM is label 0.

{"compound": "COc1cnc2c(-c3nc4c(Cl)c(F)c(OCCOC(=O)Nc5ccc6[nH]c(=O)oc6c5)cc4s3)cc(C)cc2n1 [Example 333]", "test_system": "UniProt Q96RI0", "assigned_class": "label 1"}
{"compound": "COCc1cnc2c(-c3nc4c(C)cc(OCCNS(=O)(=O)c5ccc(F)cc5)cc4s3)cccc2n1 [Example 213]", "test_system": "UniProt Q96RI0", "assigned_class": "label 1"}
{"compound": "CCc1cnc2c(-c3nc4c(C)cc(OCCNS(=O)(=O)c5ccc(F)cc5)cc4s3)cc(C)cc2n1 [Example 31]", "test_system": "UniProt Q96RI0", "assigned_class": "label 0"}
{"compound": "COc1cnc2c(-c3nc4cc(F)c(O[C@@H](C)[C@@H](C)OC(=O)Nc5ccc(OCC(F)(F)CO)nc5)cc4s3)cc(C)cc2n1 [Example 573]", "test_system": "UniProt Q96RI0", "assigned_class": "label 1"}
{"compound": "Cc1cc(-c2nc3cc(F)c(O[C@@H](C)[C@@H](C)OC(=O)Nc4cnc(C)nc4)cc3s2)c2ncc(OCC(F)F)nc2c1 [Example 827]", "test_system": "UniProt Q96RI0", "assigned_class": "label 0"}
{"compound": "COc1cnc2c(-c3nc4cc(F)c(OC[C@@H](C)OC(=O)Nc5ccc(N6CCOC6=O)nc5)cc4s3)cc(C)cc2n1 [Example 609]", "test_system": "UniProt Q96RI0", "assigned_class": "label 1"}
{"compound": "COc1cnc2c(-c3nc4cc(F)c(O[C@@H](C)[C@@H](C)OC(=O)Nc5ccc(C(=O)N6CCC[C@H](O)C6)nc5)cc4s3)cc(C)cc2n1 [Example 481]", "test_system": "UniProt Q96RI0", "assigned_class": "label 1"}

Value source: patent US12060347B2
